Hey, just so you know, these numbers are from ChEMBL document CHEMBL1127503.

- tested.on: Glutamate receptor ionotropic, NMDA 1 (Rattus norvegicus, UniProt P35439)
- protocol: Inhibition of the binding of [3H]L-689,560 ([3H]-4) to the strychnine-insensitive glycine site on rat brain membranes
Property: IC50; scope: individual compounds
measured.endpoint: IC50 (nM)

record_smiles=O=C(Nc1ccccc1)N[C@H]1C[C@H](C(=O)O)Nc2cc(Cl)cc(Cl)c21 tested_on="Glutamate receptor ionotropic, NMDA 1 (Rattus norvegicus, UniProt P35439)" test_value=4
record_smiles=COCOc1ccc(Cc2cccc(-c3c(O)nc4cc(Cl)ccc4c3O)c2)cc1 tested_on="Glutamate receptor ionotropic, NMDA 1 (Rattus norvegicus, UniProt P35439)" test_value=2.2
record_smiles=O=c1[nH]c2cc(Cl)ccc2c(O)c1-c1ccccc1 tested_on="Glutamate receptor ionotropic, NMDA 1 (Rattus norvegicus, UniProt P35439)" test_value=170
record_smiles=Oc1nc2cc(Cl)ccc2c(O)c1-c1cccc(Oc2ccsc2)c1 tested_on="Glutamate receptor ionotropic, NMDA 1 (Rattus norvegicus, UniProt P35439)" test_value=1.4
record_smiles=COc1ccc(Cc2cccc(-c3c(O)c4ccc(Cl)cc4[nH]c3=O)c2)cc1 tested_on="Glutamate receptor ionotropic, NMDA 1 (Rattus norvegicus, UniProt P35439)" test_value=4.5
record_smiles=O=c1[nH]c2cc(Cl)ccc2c(O)c1-c1cccc(Oc2ccccc2)c1 tested_on="Glutamate receptor ionotropic, NMDA 1 (Rattus norvegicus, UniProt P35439)" test_value=2
record_smiles=Oc1nc2cc(Cl)ccc2c(O)c1-c1cccc(Cc2ccsc2)c1 tested_on="Glutamate receptor ionotropic, NMDA 1 (Rattus norvegicus, UniProt P35439)" test_value=2.3
record_smiles=O=C(O)c1cc(O)c2c(I)cc(Cl)cc2n1 tested_on="Glutamate receptor ionotropic, NMDA 1 (Rattus norvegicus, UniProt P35439)" test_value=14
record_smiles=O=C(O)CCc1c(C(=O)O)[nH]c2cc(Cl)cc(Cl)c12 tested_on="Glutamate receptor ionotropic, NMDA 1 (Rattus norvegicus, UniProt P35439)" test_value=69
